Tested on: SF-539 CNS
assayDetails: NCI-60 one-dose screen, 48 h (100 = growth as untreated, 0 = no growth, -100 = all killed)
experimentalParameters: 10 µM unless noted
Procedure: Cells are grown in 96 well plates and exposed to the test compound for 48 hours. Compounds are tested at a single concentration, which is 10^-5 M for most compounds. The reported endpoint is percent growth (GI% or GIPRCNT), where numbers from 0 - 100% represent growth inhibition, and numbers from -100% - 0 represent cell death. For example, a value of 40 represents 60% growth inhibition. A value of 0 means no net growth occurred over the course of the experiment. […]
About 83,000 compounds went through this panel and 20% of them were active in at least one assay; those are over-represented in the sample as a whole.

| compound | tgt | growth / % |
| --- | --- | --- |
| Oc1[nH]c2ccccc2c1/C=c1/ccc2c(c1)N=C(c1ccc(C(F)(F)F)cc1)N=2 | SF-539 CNS | 67.4 |
| COc1cc(/C=C2\C(=O)Nc3ccc(N(C)C)cc32)cc(OC)c1OC | SF-539 CNS | 10.3 |
| Cc1cc(N=Nc2ccc(-c3ccc(N=Nc4ccc(O)c(C(=O)O)c4)cc3)cc2)c(N)c(N=Nc2ccc(C(=O)O)cc2)c1N | SF-539 CNS | 93.2 |
| COc1cc(C(=O)/C=C/c2cn(-c3ccccc3)nc2-c2cccc(Nc3ccnc4cc(Cl)ccc34)c2)cc(OC)c1OC | SF-539 CNS | 98 |
| Cc1cc(O)c(C2=NN(c3ccc(S(N)(=O)=O)cc3)C(c3ccc(Cl)cc3)C2)c(C)c1Cl (centres undefined) | SF-539 CNS | 79 |
| CCCCCNCCCCCNc1cc(OC)cc2cccnc12 | SF-539 CNS | 87.8 |
| Nc1cccc(S(=O)(=O)c2cccc(N)c2)c1 | SF-539 CNS | 113 |
| COc1ccc(-n2nc(C(=O)NCC(=O)Nc3nc4cc(OC)ccc4s3)c3ccccc3c2=O)cc1 | SF-539 CNS | -93 |
| Cc1nc2ccc(Nc3nc(N4CCOCC4)nc(N4CCN(C)CC4)n3)cc2n1Cc1ccccc1 | SF-539 CNS | 76.5 |

* * *

Tested on: NCI-H23 lung
assayDetails: NCI-60 one-dose screen, 48 h
experimentalParameters: 10 µM unless noted
Procedure: Growth inhibition of the NCI-H23 human Non-Small Cell Lung tumor cell line is measured as a screen for anti-cancer activity. Cells are grown in 96 well plates and exposed to the test compound for 48 hours. Compounds are tested at a single concentration, which is 10^-5 M for most compounds. The reported endpoint is percent growth (GI% or GIPRCNT), where numbers from 0 - 100% represent growth inhibition, and numbers from -100% - 0 represent cell death. […]
Compounds without any hit were thinned out: in the full panel of roughly 83,000, 20% have a hit. Calls of active or inactive are those of the source. How the source made its calls: active means growth percent below 10; inactive means the rest.
Classes used: active, inactive

| compound | classification |
| --- | --- |
| COc1ccc([C@@H]2[C@@H](Oc3ccccc3)C(=O)N2c2cc(OC)c(OC)c(OC)c2)cc1F | inactive |
| O=C1Nc2ccccc2/C1=C/c1c[nH]c2ccccc12 | inactive |
| O=C(O)c1ccccc1N=Cc1ccccc1 | inactive |
| Cc1ccc(Nc2nc(NCCO)c3ccccc3n2)cc1C | inactive |
| COc1ccc2nc(NC(=O)/C(=C/c3cc(OC)c(OC)c(OC)c3)c3ccc(OC)c(OC)c3)sc2c1 | inactive |
| CC(C)NC(=O)OCC#CCOC(=O)NC(C)C | inactive |
| COc1ccc2c(c1)CCCC21C(=O)Nc2c(Cl)cccc21 (configuration not stated) | inactive |
| CCN1CCN(Cc2ccc(NC(=O)c3nc4ccc5[nH]ncc5c4c4c3CCCC4)cc2C(F)(F)F)CC1 | inactive |
| CNC(=O)c1cc(Oc2ccc(NC(=O)c3nc(S(C)(=O)=O)n(C)c3-c3ccc(F)cc3)cc2)ccn1 | inactive |
| Clc1cn2cc(-c3ccc(Cl)c(Cl)c3Cl)nc2s1 | inactive |
| CC(C)c1ccc(Cn2ccc3c4c(N)nc(NC5CC5)nc4ccc32)cc1 | active |
| C/C(=N\OC(=O)Nc1ccccc1)c1ccccc1 | inactive |
| NNC(=O)Cc1ccccc1 | inactive |
| COc1cccc(NC(=O)[C@H](C(C)C)n2c(=O)[nH]c3ccccc3c2=O)c1 | inactive |
| CN(C)c1ccc(N2Cc3ccccc3OC3=C2C(=O)c2c(O)ccc(O)c2C3=O)cn1 | active |
| COc1ccc(/C(=C\c2cc(OC)c(OC)c(OC)c2)C(=O)Nc2nc3ccc(Cl)cc3s2)cc1 | inactive |
| N#Cc1c(NN)n(C2OC(CO)C(O)C2O)c2ncnc(N)c12 (configuration not stated) | active |
| CC(=O)[C@@]1(O)[C@H](C)C[C@H]2[C@@H]3C=C(C)C4=Cc5c(cnn5-c5ccccc5)C[C@]4(C)[C@H]3[C@@H](O)C[C@@]21C | inactive |
| CC1=NN(c2cccc(S(N)(=O)=O)c2)C(=O)C1 | inactive |
| CS(=O)(=O)Nc1cc(-c2cc3ncc(C#N)c(Nc4ccc(Oc5ccccc5)c(Cl)c4)c3s2)cnc1Cl | inactive |
| O=C(Cc1ccc(Nc2ccnc(C(F)(F)F)c2)cc1)N/N=C/c1ccccc1O | inactive |
| O=C(CI)NCCNc1cccc2c(S(=O)(=O)O)cccc12 | inactive |
| CCCCOc1ncnc2nc[nH]c12 | inactive |
| COc1ccc(/C=C2\Cc3c(Br)cccc3C2=O)c(OC)c1 | inactive |
| O=C(Nc1cnc(C(F)(F)F)cn1)c1cc(Cl)ccc1O | active |
| N=C(N)c1ccc(-c2ccc(-c3cc(Cl)cc(Cl)c3)o2)nc1 | active |
| O=C(Cn1nncc1CN1C(=O)CSC1=O)Nc1ccc(F)cc1 | inactive |

* * *

Tested on: HS 578T breast
assayDetails: NCI-60 one-dose screen, 48 h (100 = growth as untreated, 0 = no growth, -100 = all killed)
experimentalParameters: 10 µM
Compounds without any hit were thinned out: in the full panel of roughly 83,000, 20% have a hit.
In this section we review reported growth values for a set of molecules.

| molecule | growth [%] |
| --- | --- |
| COc1cc(NCCCCC(C)N)c2nccc(C)c2c1 (stereo unspecified) | 80.2 |
| O=c1[nH]c2cc(Cl)c(Cl)cc2o1 | 100 |
| Cn1c(=O)c2c3c(oc2c2ccccc21)C(=O)c1ccccc1C3=O | 93.2 |
| Cc1ccc(NC(=O)Cn2nncc2CN2C(=O)CSC2=O)cc1C | 99.2 |
| Cc1ccccc1CNc1ncnc2[nH]ncc12 | 165 |
| CCOc1ccc([C@@H]2[C@@H](Oc3ccccc3)C(=O)N2c2cc(OC)c(OC)c(OC)c2)cc1 | 34.6 |

* * *

System: A498 renal
assayDetails: NCI-60 one-dose screen, 48 h (100 = growth as untreated, 0 = no growth, -100 = all killed)
experimentalParameters: 10 µM unless noted
This is part of a sample that, as a whole, favours compounds with a hit. Of some 83,000 tested, about 20% had one in any assay.
readoutType: growth (%)

| compound | unitOfMeasurement | measValue |
| --- | --- | --- |
| CCOC(=O)C1=C(C)NC(SCc2nnc(-c3ccc(Cl)cc3)o2)=NC1c1ccc(Cl)cc1 (stereo not drawn) | % | 80.7 |
| CC(=O)N1N=C(c2ccc(C)cc2)CC1c1cn(-c2ccccc2)nc1-c1cccc(Nc2ccnc3cc(Cl)ccc23)c1 (stereo not drawn) | % | 82.2 |
| CC(C)NCCCCCNc1cc(O)cc2cccnc12 | % | 79.1 |

* * *

System: NCI-H226 lung
assayDetails: NCI-60 one-dose screen, 48 h (100 = growth as untreated, 0 = no growth, -100 = all killed)
experimentalParameters: 10 µM unless noted
Compounds without any hit were thinned out: in the full panel of roughly 83,000, 20% have a hit.
We label by threshold. Values of growth strictly beneath 90% are rule met. Values of 90% and up are rule not met.

| compound | classification |
| --- | --- |
| CN(C)c1ccc(/C=N/Nc2nnc3n2N=C(c2ccc(Cl)cc2)CS3)cc1 | rule met |
| CCCCn1c(C)nc2ccc(Nc3nc(Cl)nc4nc[nH]c34)cc21 | rule met |
| Clc1ccccc1Nc1nnc(-c2ccncc2)s1 | rule not met |
| COc1cc2nccc(Oc3ccc(NC(=O)C4(C(=O)Nc5c(F)cc(F)cc5F)CC4)cc3)c2cc1Oc1ccc(N)cn1 | rule met |
| Cc1[nH]n(C(=O)c2ccncc2)c(=O)c1N=Nc1ccc(O)c(C(=O)O)c1 | rule met |
| COc1cc(Nc2ccnc3ccc(Br)cc23)cc(OC)c1OC | rule met |
| CNC(=O)c1ccccc1Sc1ccc2c(/C=C/c3ccccn3)n[nH]c2c1 | rule met |
| C/C(=N\NC(=S)N1CCCCC1)c1ccccn1 | rule met |
| COc1ccc(C(=O)c2cc(C)c(OC)c(C)c2)cc1OC(=O)CCl | rule met |
| C=C(C)C1CCC2(C(=O)O)CCC3(C)C(CCC4C5(C)CCC(O)C(C)(C)C5CCC43C)C12 (stereo not drawn) | rule met |
| COc1ccc(/C(=C\c2cc(OC)c(OC)c(OC)c2)C(=O)N2CCCNCC2)cc1 | rule not met |
| COc1ccc2cc(-c3nc(C)c(C(C)=O)c(-c4ccc(C)cc4)n3)ccc2c1 | rule met |
| O=C1C=CC(=O)N1CO | rule not met |
| Cc1cc(C)c2c(n1)sc1c(Nc3ccc(OCc4ccccc4)cc3)ncnc12 | rule not met |
| CCCOC(=O)C1c2cc3c(cc2CC(C)C1C(=O)OCCC)OCO3 (stereo not drawn) | rule not met |
| Cc1cc(C)cc(CCCCCCCCCCCCCCCCCC(=O)O)c1 | rule not met |
| O=C(NCCNC(=O)c1cc(S(=O)(=O)NCCc2ccccc2)c(O)c(O)c1O)c1cc(S(=O)(=O)NCCc2ccccc2)c(O)c(O)c1O | rule met |
| Cc1cc(C)cc(Nc2cc(C)nc3nc(C(F)(F)F)nn23)c1 | rule met |
| Nc1c(C(=O)Nc2cccc(Cl)c2)sc2ncc(Br)cc12 | rule met |
| COC(=O)C(CCC(=O)CCl)N1C(=O)c2ccccc2C1=O (stereo not drawn) | rule met |
| CCCCCCCCCCCCCCCC1=NCC[N+]1(CCO)CCO | rule met |
| COc1ccc2nc(C)cc(Nc3ccccc3O)c2c1 | rule met |
| Cc1c(C)c(C)c([N+](=O)[O-])c([N+](=O)[O-])c1C | rule not met |
| C#CC[C@@H]1C[C@]2(C)[C@H]3CC=C4[C@H]5[C@@H](C)[C@H](C)CC[C@]5(C(=O)NCCCCN)CC[C@@]4(C)[C@]3(C)CC[C@H]2C(C)(C)[C@H]1OC(C)=O | rule met |
| CCNS(=O)(=O)c1ccc(C)cc1 | rule not met |
| OC(c1cc(-c2ccc(C(F)(F)F)cc2)nc(-c2ccc(C(F)(F)F)cc2)c1)C1CCCCN1 (stereo not drawn) | rule met |
| C=CCN(CCOC(=O)c1ccc([N+](=O)[O-])cc1)CCOC(=O)c1ccc([N+](=O)[O-])cc1 | rule not met |
| Cc1nc2n[nH]c(N)c2nc1C | rule not met |
| COc1cc2c(cc1C)NC(=O)/C2=C\c1c[nH]c2ccccc12 | rule met |
| CCN(C)CCCOc1ccc(/C(=C(\C)Cc2cccc(OC)c2)c2ccc(OC(C)=O)cc2)cc1 | rule met |
| COc1ccc(-c2cn(-c3cccc(C(=O)/C=C/c4ccc(O)c(OC)c4)c3)c(=O)[nH]2)cc1 | rule not met |
| Nc1cccc(S(=O)(=O)c2cccc(N)c2)c1 | rule not met |
